In this section we review reported MIC values for a set of compounds.
test system: Mycobacterium kansasii; experiment: In vitro inhibition of Mycobacterium Kansasi (My 6 509/96) growth after 14 days culture.; type: functional; details: 336 h
Include the unit right after the number.

>>> reported_result("c1ccc(CSc2nc3ccccc3o2)cc1")
"125 µM"
>>> reported_result("NC(=S)c1ccc(CSc2nc3ccccc3o2)cc1")
"16 µM"
>>> reported_result("O=[N+]([O-])c1cccc(CSc2nc3ccccc3o2)c1")
"32 µM"
>>> reported_result("NNC(=O)c1ccncc1 [ISONIAZID]")
"2 µM"
>>> reported_result("N#Cc1ccc(CSc2nc3ccccc3o2)cc1")
"32 µM"

// moving on: another record for MIC
Answer briefly: MIC recorded on Mycobacterium kansasii for Sc1nc2ccccc2o1 500 µM
